Each entry below lists one item and its recorded phosphorylation enrichment value.
- Tested on: c-Abl (mouse);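 note: 11-residue human phosphosite peptides and single-mutation variants displayed on the E. coli surface, counted by deep sequencing, each peptide's frequency after selection divided by its frequency in the unselected input library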;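 note: frequency after pTyr selection over input frequency; kinase dosed for 20-30% of maximal phosphorylation in three min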
- PROTOCOL_DESCRIPTION: phosphorylation enrichment, bacterial display (enrichment ratio); higher = better substrate or ligand; peptides without Tyr show the background

SEQUENCE_INPUT | phosphorylation enrichment
GKTQQYECKWF [BCR_Y751_D752E_YF] | 0.614
QVMDGYPMPIG [MMP14_Y353] | 1.03
CTTIHYNYVCN [TP53_Y234_M237V] | 0.595
TEGNEYVFRVA | 0.647
TKDTFYKQPVF [GBA_Y451_M455V] | 0.764
VDTFWYKLLKR [EPM2A_Y86_F88L] | 0.748
YALAEYTEVKT [ALDH1A3_Y497] | 0.614
DVYVSYDYGKS [SORL1_Y139] | 1.03
ALECLYHREKR [TEKT5_Y195] | 0.927
PGAGHYEDTIL [ALK_Y1604] | 0.765
YIPFRYPKEFQ [IDS_Y234_H229Y] | 0.464
SLVGCYNLTFM [HS6ST3_Y323] | 1.12
GITVTYTIPKK [UBA5_Y372_A371T] | 2.12
IRQGHYESLKE [MTR_Y921_D919G] | 0.443
ADGLEYSRTGL [MMUT_Y287] | 0.878
IHHIDYYKKTT [FGFR1_Y653] | 0.524
AKAFIYASHIV [ZNF573_Y229_G224A] | 1.44
CTTIHYSFMCN [TP53_Y234_N235S_YF] | 0.828
SFCFRYRCAAR [SUMF1_Y344_YF] | 0.763
KKKKQYKGKFL [CASK_Y708_D710G_YF] | 0.547
FGSVDCWEKFF [EEF1AKNMT_Y16_Y16C] | 0.801
MKGEFYRFLAE [YWHAG_Y131_D129E_YF] | 0.627
DQVEQYKKELE [LMNA_Y259] | 0.878
DKNSSYFADWF [TUBB8_Y340_L345F] | 0.613
FLGEEYVKAVG [TF_Y674_YF] | 0.598
EEGNPYYSSAR [MCCC2_Y520] | 0.679
KVKPIYFHTQG [AR_Y916] | 0.578
TMKSRYMELYD [BBS2_Y644] | 0.624
CPFNLYAEQFS [HGD_Y40_L44F_YF] | 1.16
PVADPYDQSFE [MAPK14_Y323] | 2.38
GLRSYYETSKM [MAGED2_Y449] | 0.534
DPLLTHRFPPK [LMNA_Y481_Y481H] | 0.395
ALLTKYSRSSM [DSCC1_Y374_H376R] | 0.697
DLEKTYNTYRS [B4GALNT2_Y538_A533D] | 0.441
EAMPDYKKQLR [SPATA18_Y229_S227P] | 0.469
IITDFYVDMKF [MPP4_Y567_V562I_YF] | 0.905
KPRKPYTIKKP [BRD2_Y715] | 1.98
RLMLQYDAVVN [SLC25A32_Y152] | 0.685

====

- TEST_SYSTEM: Grb2 SH2 (UniProt P62993)
- Sequence (P62993 whole entry, looked up): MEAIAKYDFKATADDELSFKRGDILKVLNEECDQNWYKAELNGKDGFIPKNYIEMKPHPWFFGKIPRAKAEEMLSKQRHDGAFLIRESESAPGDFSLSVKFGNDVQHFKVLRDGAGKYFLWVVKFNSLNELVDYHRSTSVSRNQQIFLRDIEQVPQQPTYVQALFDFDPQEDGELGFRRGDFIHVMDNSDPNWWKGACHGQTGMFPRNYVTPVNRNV
- PROTOCOL_DESCRIPTION: SH2 binding enrichment of the phosphorylated peptide, bacterial display (enrichment ratio); higher = better substrate or ligand; peptides without Tyr show the background
READOUT_KIND: SH2 binding enrichment

SEQUENCE_INPUT | READOUT_KIND | OBSERVED_MEASUREMENT
NFRNTYVNANE [KCNH2_Y475_T473N] | SH2 binding enrichment | 29.8
MHDSNCVSKGS [PDGFRA_Y849_Y849C] | SH2 binding enrichment | 0.86
PEFMVYKPQME [CCRL2_Y170_V168M] | SH2 binding enrichment | 0.794
HRDSSYFWEIE [RAF1_Y340_Q335H_YF] | SH2 binding enrichment | 0.856
